Sourced from patent US20130225488A1

Here the recorded cAMP production with saturated glucagon peptide; test compound 100 nM is given for each entry.
target: Human glucagon receptor (human, UniProt P47871 26-477); test: cell-based or functional assay
Where no end group is shown, it is not given here. [ ]: non-standard residue; d: D form. Ac3c = NC1(C(=O)O)CC1; Aib = CC(C)(N)C(=O)O
ATTRIBUTE MEASURED: cAMP production with saturated glucagon peptide; test compound 100 nM

BINDER	DATA VALUE
H[Ac3c]QGTFTSD[Bip(OMe)][Bip(2Me)] [Seq. ID. No. 17: H-(ACP)-QGTFTSD-Bip(OMe)-Bip(2Me)]	0 pmol/ml/µg prt
HAQGTFTSD[Bip(OMe)][Bip(2F)] [Seq. ID. No. 11: HAQGTFTSD-Bip(OMe)-Bip(2F)]	6 pmol/ml/µg prt
HXQGTXTSDXX (not fully specified; ACP at 2; α-Me-2F-Phe at 6; Bip(OMe) at 10; Bip(2F) at 11) [Seq. ID. No. 35: H-(ACP)-QGT-(α-Me-2F-Phe)-TSD-Bip(OMe)-Bip(2F)]	1 pmol/ml/µg prt
HSQGTXTSDXX (α-Me-2F-Phe at 6; Bip(OMe) at 10; Bip(Pyr) at 11) [Seq. ID. No. 22: HSQGT-(α-Me-2F-Phe)-TSD-Bip(OMe)-Bip(Pyr)]	18 pmol/ml/µg prt
HSQGTXTSDXX (α-Me-2F-Phe at 6; Bip(OMe) at 10; Bip(2CF3) at 11) [Seq. ID. No. 24: HSQGT-(α-Me-2F-Phe)-TSD-Bip(OMe)-Bip(2CF3)]	0 pmol/ml/µg prt
H[Ac3c]QGTFTSD[Bip(OMe)][Bip(2CF3)] (not fully specified) [Seq. ID. No. 20: H-(ACP)-QGTFTSD-Bip(OMe)-Bip(2CF3)]	0 pmol/ml/µg prt
H[Aib]QGTFTSD[Bip(OMe)][Bip(2CF3)] [Seq. ID. No. 16: H-Aib-QGTFTSD-Bip(OMe)-Bip(2CF3)]	0 pmol/ml/µg prt
HAQGTFTSD[Bip(OMe)][Bip(Pyr)] [Seq. ID. No. 10: HAQGTFTSD-Bip(OMe)-Bip(Pyr)]	8 pmol/ml/µg prt
HXQGTXTSDXX (Aib at 2; α-Me-2F-Phe at 6; Bip(OMe) at 10; Bip(2F) at 11) [Seq. ID. No. 31: H-Aib-QGT-(α-Me-2F-Phe)-TSD-Bip(OMe)-Bip(2F)]	2 pmol/ml/µg prt
HXQGTXTSDXX (not fully specified; ACP at 2; α-Me-2F-Phe at 6; Bip(OMe) at 10; Bip(Pyr) at 11) [Seq. ID. No. 34: H-(ACP)-QGT-(α-Me-2F-Phe)-TSD-Bip(OMe)-Bip(Pyr)]	0 pmol/ml/µg prt
H[Ac3c]QGTFTSD[Bip(OMe)][Bip(Pyr)] [Seq. ID. No. 18: H-(ACP)-QGTFTSD-Bip(OMe)-Bip(Pyr)]	0 pmol/ml/µg prt
HAQGTFTSD[Bip(OMe)][Bip(2CF3)] [Seq. ID. No. 12: HAQGTFTSD-Bip(OMe)-Bip(2CF3)]	0 pmol/ml/µg prt
HXQGTXTSDXX (Aib at 2; α-Me-2F-Phe at 6; Bip(OMe) at 10; Bip(2CF3) at 11; C-terminal amide (CONH2)) [Seq. ID. No. 32: H-Aib-QGT-(α-Me-2F-Phe)-TSD-Bip(OMe)-Bip(2CF3)]	0 pmol/ml/µg prt
HAQGTFTSD[Bip(OMe)][Bip(2Me)] (not fully specified (C-terminus); printed as HAQGTFTSD-Bip(OMe)-Bip(2Me)) [Seq. ID. No. 9: HAQGTFTSD-Bip(OMe)-Bip(2Me)]	12 pmol/ml/µg prt
HSQGTXTSDXX (α-Me-2F-Phe at 6; Bip(OMe) at 10; Bip(2Me) at 11) [Seq. ID. No. 21: HSQGT-(α-Me-2F-Phe)-TSD-Bip(OMe)-Bip(2Me)]	15 pmol/ml/µg prt
H[Aib]QGTFTSD[Bip(OMe)][Bip(2Me)] [Seq. ID. No. 13: H-Aib-QGTFTSD-Bip(OMe)-Bip(2Me)]	6 pmol/ml/µg prt
HSQGTFTSD[Bip(OMe)][Bip(2Me)]-NH2 [Seq. ID. No. 5: HSQGTFTSD-Bip(OMe)-Bip(2Me)]	16 pmol/ml/µg prt
HXQGTXTSDXX (not fully specified; ACP at 2; α-Me-2F-Phe at 6; Bip(OMe) at 10; Bip(2CF3) at 11) [Seq. ID. No. 36: H-(ACP)-QGT-(α-Me-2F-Phe)-TSD-Bip(OMe)-Bip(2CF3)]	0 pmol/ml/µg prt
H[Aib]QGTFTSD[Bip(OMe)][Bip(Pyr)] [Seq. ID. No. 14: H-Aib-QGTFTSD-Bip(OMe)-Bip(Pyr)]	5 pmol/ml/µg prt
